From: patent US8513271B2

# study_target: delta opioid receptor (Mus musculus, UniProt P32300)
# Construct: NG108-15 cell membranes were purchased from Applied Cell Sciences (Rockville, Md.); host or cells: NG108-15 cell membranes
# Sequence (P32300 whole entry): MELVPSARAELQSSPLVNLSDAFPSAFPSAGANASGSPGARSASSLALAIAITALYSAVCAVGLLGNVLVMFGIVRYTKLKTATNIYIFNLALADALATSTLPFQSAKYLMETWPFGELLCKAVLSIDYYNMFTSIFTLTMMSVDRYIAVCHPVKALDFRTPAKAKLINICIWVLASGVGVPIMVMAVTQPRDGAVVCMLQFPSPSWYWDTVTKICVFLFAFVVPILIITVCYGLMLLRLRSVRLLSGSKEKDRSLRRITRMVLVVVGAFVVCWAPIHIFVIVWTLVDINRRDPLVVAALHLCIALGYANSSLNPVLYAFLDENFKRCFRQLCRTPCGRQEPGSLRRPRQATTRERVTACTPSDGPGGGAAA
# procedure_summary: [35S]GTPγS binding assay in NG108-15 cell membranes (delta opioid functional assay), 200 nM screen
# Assay type: biochemical
# measurement_context: relative efficacy from dose response; NG108-15 cell membranes
Provide the recorded GTPγS δ-opioid receptor Rel Efficacy for the entries that follow.
// response body must contain only the number

GTPγS δ-opioid receptor Rel Efficacy reported for this compound `COc1ccc(Oc2nc(-c3cncc(SC)c3)ncc2N[C@H]2CCC[C@@H](N)C2)cc1` : 0.977

GTPγS δ-opioid receptor Rel Efficacy reported for this compound `COc1ccc(-c2ncc(NC[C@@H]3CCCN3)c(Oc3ccc(O)cc3)n2)cn1` : 1.0063

GTPγS δ-opioid receptor Rel Efficacy reported for this compound COc1ccc(Oc2nc(-c3cncc(C#N)c3)ncc2NC2CCC(N)CC2)cc1 (centres unmarked) : 1.012

GTPγS δ-opioid receptor Rel Efficacy reported for this compound `Cc1ccc(Oc2nc(-c3cncc(F)c3)ncc2NC[C@@H]2CCCN2)cc1F` : 1.014

GTPγS δ-opioid receptor Rel Efficacy reported for this compound `COc1ccc(Oc2nc(-c3cccnc3)ncc2N[C@@H]2CCCNC2)cc1` : 0.979
